Ref: BindingDB's records for doi:10.1016/j.bmcl.2005.03.024

- MEASURED ON: Cyclin-dependent kinase/G2/mitotic-specific cyclin- 1 (Homo sapiens, UniProt P06493)
- Sequence (P06493 whole entry): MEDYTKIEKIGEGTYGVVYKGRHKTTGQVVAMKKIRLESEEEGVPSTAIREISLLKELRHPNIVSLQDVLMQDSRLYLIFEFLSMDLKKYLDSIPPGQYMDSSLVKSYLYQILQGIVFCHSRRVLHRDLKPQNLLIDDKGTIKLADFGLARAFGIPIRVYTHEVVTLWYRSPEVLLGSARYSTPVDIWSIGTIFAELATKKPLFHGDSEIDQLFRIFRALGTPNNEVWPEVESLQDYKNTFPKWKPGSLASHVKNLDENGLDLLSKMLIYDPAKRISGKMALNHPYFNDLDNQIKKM
- Sequence (P14635 whole entry, further chain): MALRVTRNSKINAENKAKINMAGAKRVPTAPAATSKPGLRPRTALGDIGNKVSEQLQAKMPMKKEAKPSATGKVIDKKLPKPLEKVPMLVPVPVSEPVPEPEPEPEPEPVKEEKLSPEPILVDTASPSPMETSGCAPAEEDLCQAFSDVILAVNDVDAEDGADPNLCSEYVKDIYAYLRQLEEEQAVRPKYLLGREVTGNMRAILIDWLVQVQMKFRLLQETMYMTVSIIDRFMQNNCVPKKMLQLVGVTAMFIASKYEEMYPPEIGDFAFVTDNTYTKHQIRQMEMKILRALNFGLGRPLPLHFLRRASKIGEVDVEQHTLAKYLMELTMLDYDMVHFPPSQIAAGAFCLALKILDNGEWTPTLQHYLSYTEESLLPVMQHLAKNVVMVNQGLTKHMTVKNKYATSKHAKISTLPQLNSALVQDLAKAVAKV
- PROCEDURE SUMMARY: Kinase Inhibition Assay
- CONDITION INFO: pH 8; 30 °C
- Procedure: The enzyme was assayed with a biotinylated peptide substrate and test compounds in the presence of 10 uM ATP/[gamma-33P]ATP in a streptavidin coated FlashPlate (Perkin-Elmer, Boston, MA). Inhibition of the enzymatic activity due to the compound was measured by observing a reduced amount of 33P-gamma-ATP incorporated into the immobilized peptide relative to untreated controls. Linear regression analysis of the percent of inhibition by the test compound was used to calculate IC50 values.
VALUE TYPE: IC50

See these solved cases before continuing.
SMILES STRING: CC(=O)Nc1ccccc1Nc1ccc(C(=O)c2c(F)cccc2F)c(N)n1
MEASURED ON: Cyclin-dependent kinase/G2/mitotic-specific cyclin- 1 (Homo sapiens, UniProt P06493)
TEST VALUE: > 100 µM
--
SMILES STRING: Nc1nc(Nc2ccccc2[N+](=O)[O-])ccc1C(=O)c1c(F)cccc1F
MEASURED ON: Cyclin-dependent kinase/G2/mitotic-specific cyclin- 1 (Homo sapiens, UniProt P06493)
TEST VALUE: > 10 µM
--
SMILES STRING: Nc1nc(Nc2ccccc2NS(=O)(=O)c2ccccc2)ccc1C(=O)c1c(F)cccc1F
MEASURED ON: Cyclin-dependent kinase/G2/mitotic-specific cyclin- 1 (Homo sapiens, UniProt P06493)
TEST VALUE: > 100 µM

Consider the additional molecule presented here.
State its IC50: Nc1nc(Nc2ccccc2NC(=O)c2ccccc2)ccc1C(=O)c1c(F)cccc1F
> 100 µM

###

I'd appreciate it if you could supply pIC50 values for the items below.
- MEASURED ON: Cyclin-dependent kinase/G2/mitotic-specific cyclin- 1 (Homo sapiens, UniProt P06493)
- PROCEDURE SUMMARY: Kinase Inhibition Assay
pIC50: −log10 of the molar value.

See these solved cases before continuing.
SMILES STRING: CCN(CC)S(=O)(=O)c1ccc(Nc2ccc(C(=O)c3ccco3)c(N)n2)cc1
TEST VALUE: < 4.00
--
SMILES STRING: Nc1ccc(C(=O)c2cccs2)c(N)n1
TEST VALUE: < 4.00
--
SMILES STRING: Nc1ccc(C(=O)c2ccco2)c(N)n1
TEST VALUE: < 4.00
--
SMILES STRING: CCN(CC)S(=O)(=O)c1ccc(Nc2ccc(C(=O)c3ccccc3)c(N)n2)cc1
TEST VALUE: < 4.00

Consider the additional compound presented here.
State its pIC50: Nc1nc(Nc2ccc(S(=O)(=O)N(Cc3ccccc3)Cc3ccccc3)cc2)ccc1C(=O)c1c(F)cccc1F
< 5.00
